Biological target: Electric eel AChE (Electrophorus electricus)
Construct: purchased Sigma-Aldrich Co
Sequence (O42275 24-633): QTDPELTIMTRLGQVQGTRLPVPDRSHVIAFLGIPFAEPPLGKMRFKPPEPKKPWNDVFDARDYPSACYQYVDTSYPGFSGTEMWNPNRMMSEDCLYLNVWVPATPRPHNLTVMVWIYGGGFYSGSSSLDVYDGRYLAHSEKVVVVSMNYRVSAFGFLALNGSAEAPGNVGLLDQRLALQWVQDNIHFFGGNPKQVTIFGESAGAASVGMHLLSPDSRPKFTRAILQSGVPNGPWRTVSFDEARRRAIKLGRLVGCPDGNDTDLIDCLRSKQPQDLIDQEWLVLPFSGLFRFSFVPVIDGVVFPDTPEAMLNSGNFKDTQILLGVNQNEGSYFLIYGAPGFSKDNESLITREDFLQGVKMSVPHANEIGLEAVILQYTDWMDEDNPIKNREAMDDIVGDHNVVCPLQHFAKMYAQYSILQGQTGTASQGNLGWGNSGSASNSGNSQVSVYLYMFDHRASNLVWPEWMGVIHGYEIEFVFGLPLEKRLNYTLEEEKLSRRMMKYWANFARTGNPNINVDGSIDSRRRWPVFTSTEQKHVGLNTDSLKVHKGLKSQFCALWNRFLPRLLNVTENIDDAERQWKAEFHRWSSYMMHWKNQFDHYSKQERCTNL
Experiment: In vitro cholinesterase enzyme assay (Ellman), AChE
Type: biochemical
pIC50: −log10 of the molar value.
quantity kind: pIC50

> print(dat)
                                   molecule  endpoint.value
1  Cc1c(CCO)c(CO)cc2c1C(=O)[C@@H](C)C2 [(2S)-Pterosin P, (2S)-pterosin P]            4.75
2  COc1ccc2cc3[n+](cc2c1OC)CCc1cc2c(cc1-3)OCO2 [Berberine, berberine]            6.41
3  Cc1cc2c(c(C)c1CCO)C(=O)C(C)(C)C2 [Pterosin Z, pterosin Z]            4.33
4  Cc1cc2c(c(C)c1CCO)C(=O)[C@H](C)[C@H]2O [(2R,3R)-Pterosin C, (2R,3R)-pterosin C]            4.63
5  Cc1cc2c(c(C)c1CCO)C(=O)[C@@H](C)[C@H]2O [(2S,3R)-Pterosin C, (2S,3R)-pterosin C]            4.89
6  Cc1cc2c(c(C)c1CCO)C(=O)[C@H](C)C2 [(2R)-Pterosin B, (2R)-pterosin B]            4.79
